pIC50: −log10 of the molar value.
Here's what we have: pIC50 numbers for Cbl-b (Homo sapiens, UniProt Q13191).

Some compounds with recorded pIC50:
{"mol": "CC(C)Oc1cc(-c2ccc(C#N)cc2C(=O)N2CC(F)(F)C2)cc(NC(=O)c2cc(CN[C@@H](C)C(C)C)cn(C)c2=O)n1", "recordedMeasurement": "> 7.00"}
{"mol": "CO[C@@H](C)CNCc1cc(C(=O)Nc2cc(-c3c(F)cc(Cl)cc3C(=O)N3CC(F)(F)C3)cc(C3CC3)n2)c(=O)n(C)c1", "recordedMeasurement": "> 7.00"}

Q) Suppose we examine the compound CCNc1cc(-c2ccc(Cl)cc2C(=O)N2CC(F)(F)C2)cc(NC(=O)c2cc(CNC[C@@H]3CCCO3)cn(C)c2=O)n1 ; what pIC50 value has been reported?
A) > 7.00
